assay_summary: Plasma and brain pharmacokinetics in rats, 1 and 7 days oral administration
Assay type: in vivo, Sprague-Dawley rats
test_context: both sexes, Sprague-Dawley, po; rat plasma; Day 1; 2.67 g/kg p.o.; read-out: AUC0-12h
Method: One hundred Sprague-Dawley rats (200-260 g), female (60) and male (40), received trehalose (2.67 g/kg/day, oral gavage in sterile water) for 1 or 7 days. […] Plasma and brain samples were analysed for trehalose levels using a validated LC-MS/MS method and plasma exposure timecourses (FIG. 1) and pharmacokinetic parameters were calculated (Table 6). […]
value_type: AUC(0-t) (ng·h/mL)
// units = ng·h/mL; emit number, no label

Return reported AUC(0-t). Input molecule: "OC[C@H]1O[C@H](O[C@H]2O[C@H](CO)[C@@H](O)[C@H](O)[C@H]2O)[C@H](O)[C@@H](O)[C@@H]1O"
10900

====

assay_summary: Brain and CSF trehalose levels in macaques after two days administration
Assay type: in vivo
test_context: female, macaque, CSF, oral, 2.67 g/kg for two days, 1 h post-administration on day 2, read-out: CSF trehalose level
value_type: concentration at 1 h (ng/mL)
Give the value, in units of ng/mL, as a plain number.

Fill in reported concentration at 1 h for this entry: OC[C@H]1O[C@H](O[C@H]2O[C@H](CO)[C@@H](O)[C@H](O)[C@H]2O)[C@H](O)[C@@H](O)[C@@H]1O [trehalose]
562

====

assay_summary: Plasma and brain pharmacokinetics in rats, 1 and 7 days oral administration
Type: in vivo, Sprague-Dawley rats
test_context: both sexes, Sprague-Dawley, po; rat plasma; Day 7; 2.67 g/kg/day p.o.
value_type: Tmax
Give the number first and the unit second.

Note down Tmax recorded for "OC[C@H]1O[C@H](O[C@H]2O[C@H](CO)[C@@H](O)[C@H](O)[C@H]2O)[C@H](O)[C@@H](O)[C@@H]1O"
15 min

====

assay_summary: Plasma pharmacokinetics in macaques, 1 and 7 days oral administration
Type: in vivo
test_context: female, monkey, plasma, po, 2.67 g/kg/day, macaque plasma; 2.67 g/kg/day p.o.; Day 1; read-out: AUC0-24h
Experimental: Three female macaques (3.81-4.67 kg) received trehalose (2.67 and 5.34 g/kg/day, oral gavage in sterile water) for 7 days. Plasma samples were collected pre-dose and 15 min, 30 min, 1 h, 2 h, 4 h, 6 h, 12 h and 24 h post-dose on days 1 and 7 and analysed for trehalose levels using a validated LC-MS/MS method and plasma exposure time courses (FIG. 2) and pharmacokinetic parameters were calculated (Table 7).
value_type: AUC(0-t) (ng·h/mL)
Could you give me the number in ng·h/mL? Just the number is fine.

Input "OC[C@H]1O[C@H](O[C@H]2O[C@H](CO)[C@@H](O)[C@H](O)[C@H]2O)[C@H](O)[C@@H](O)[C@@H]1O" , output reported AUC(0-t).
26700

====

assay_summary: Plasma pharmacokinetics in macaques, 1 and 7 days oral administration
Assay type: in vivo
test_context: female, monkey, plasma, po, 5.34 g/kg/day, macaque plasma; 5.34 g/kg/day p.o.; Day 1
Experimental: Three female macaques (3.81-4.67 kg) received trehalose (2.67 and 5.34 g/kg/day, oral gavage in sterile water) for 7 days. Plasma samples were collected pre-dose and 15 min, 30 min, 1 h, 2 h, 4 h, 6 h, 12 h and 24 h post-dose on days 1 and 7 and analysed for trehalose levels using a validated LC-MS/MS method and plasma exposure time courses (FIG. 2) and pharmacokinetic parameters were calculated (Table 7).
value_type: Tmax (min)
Your answer should be a plain number; it is taken to be in min.

Please report Tmax for the following compound: OC[C@H]1O[C@H](O[C@H]2O[C@H](CO)[C@@H](O)[C@H](O)[C@H]2O)[C@H](O)[C@@H](O)[C@@H]1O [trehalose]
40.2

====

assay_summary: Plasma and brain pharmacokinetics in rats, 1 and 7 days oral administration
Type: in vivo, Sprague-Dawley rats
test_context: both sexes, Sprague-Dawley, po; rat brain; Day 7; 2.67 g/kg/day p.o.
value_type: AUC(0-inf)
# do not omit the unit; it follows the number

Give reported AUC(0-inf) value for "OC[C@H]1O[C@H](O[C@H]2O[C@H](CO)[C@@H](O)[C@H](O)[C@H]2O)[C@H](O)[C@@H](O)[C@@H]1O"
76.2 ng·h/mL

====

assay_summary: Plasma pharmacokinetics in macaques, 1 and 7 days oral administration
Format: in vivo
test_context: female, monkey, plasma, po, 5.34 g/kg/day, macaque plasma; 5.34 g/kg/day p.o.; Day 7; read-out: AUC0-24h
value_type: AUC(0-t) (ng·h/mL)
Give the quantity in ng·h/mL, number only.

Return AUC(0-t) for the following compound: OC[C@H]1O[C@H](O[C@H]2O[C@H](CO)[C@@H](O)[C@H](O)[C@H]2O)[C@H](O)[C@@H](O)[C@@H]1O [trehalose]
56500

====

assay_summary: Plasma pharmacokinetics in macaques, 1 and 7 days oral administration
Format: in vivo
test_context: female, monkey, plasma, po, 2.67 g/kg/day, macaque plasma; 2.67 g/kg/day p.o.; Day 7
value_type: Tmax (min)
Return type: number; implicit unit min.

Dear colleague, please send me the reported Tmax for "OC[C@H]1O[C@H](O[C@H]2O[C@H](CO)[C@@H](O)[C@H](O)[C@H]2O)[C@H](O)[C@@H](O)[C@@H]1O" when you can.
40.2

====

assay_summary: Plasma and brain pharmacokinetics in rats, 1 and 7 days oral administration
Assay type: in vivo, Sprague-Dawley rats
test_context: both sexes, Sprague-Dawley, po; rat brain; Day 1; 2.67 g/kg p.o.
value_type: half-life (min)
Answer in min, number only, no unit symbol.

Report half-life for OC[C@H]1O[C@H](O[C@H]2O[C@H](CO)[C@@H](O)[C@H](O)[C@H]2O)[C@H](O)[C@@H](O)[C@@H]1O [trehalose]
48.6

====

assay_summary: Plasma, brain and CSF trehalose levels in macaques after 17 weeks administration
Type: in vivo, cynomolgus monkeys (Macaca fascicularis)
test_context: female, cynomolgus monkey, brain (cerebellum), po, 2.67 g/kg/day p.o. 17 weeks, 1 h after final administration, read-out: brain trehalose level
value_type: concentration at 1 h

Check the records and state concentration at 1 h for "OC[C@H]1O[C@H](O[C@H]2O[C@H](CO)[C@@H](O)[C@H](O)[C@H]2O)[C@H](O)[C@@H](O)[C@@H]1O"
129 ng/g

====

assay_summary: Plasma and brain pharmacokinetics in rats, 1 and 7 days oral administration
Assay type: in vivo, Sprague-Dawley rats
test_context: both sexes, Sprague-Dawley, po; rat brain; Day 1; 2.67 g/kg p.o.; read-out: AUC0-12h
value_type: AUC(0-t)

Entry OC[C@H]1O[C@H](O[C@H]2O[C@H](CO)[C@@H](O)[C@H](O)[C@H]2O)[C@H](O)[C@@H](O)[C@@H]1O [trehalose] needs its AUC(0-t) filled in; supply it.
86.8 ng·h/mL

====

assay_summary: Plasma pharmacokinetics in macaques, 1 and 7 days oral administration
Assay type: in vivo
test_context: female, monkey, plasma, po, 2.67 g/kg/day, macaque plasma; 2.67 g/kg/day p.o.; Day 7; read-out: AUC0-24h
value_type: AUC(0-t) (ng·h/mL)
Field format: number, assumed ng·h/mL, no unit text.

Let me know recorded AUC(0-t) for "OC[C@H]1O[C@H](O[C@H]2O[C@H](CO)[C@@H](O)[C@H](O)[C@H]2O)[C@H](O)[C@@H](O)[C@@H]1O" , thanks.
26000

====

assay_summary: Plasma and brain pharmacokinetics in rats, 1 and 7 days oral administration
Assay type: in vivo, Sprague-Dawley rats
test_context: both sexes, Sprague-Dawley, po; rat brain; Day 7; 2.67 g/kg/day p.o.
value_type: Cmax (ng/mL)
Numbers only; they are read as ng/mL.

For the compound "OC[C@H]1O[C@H](O[C@H]2O[C@H](CO)[C@@H](O)[C@H](O)[C@H]2O)[C@H](O)[C@@H](O)[C@@H]1O" , give its measured Cmax value.
73

====

assay_summary: Plasma pharmacokinetics in macaques, 1 and 7 days oral administration
Assay type: in vivo
test_context: female, monkey, plasma, po, 2.67 g/kg/day, macaque plasma; 2.67 g/kg/day p.o.; Day 1
value_type: Cmax (ng/mL)
Report the value in ng/mL with no unit label.

Tell me measured Cmax for "OC[C@H]1O[C@H](O[C@H]2O[C@H](CO)[C@@H](O)[C@H](O)[C@H]2O)[C@H](O)[C@@H](O)[C@@H]1O" please.
10900

====

assay_summary: Plasma and brain trehalose levels 30 min post-dose in rat efficacy study (LC-MS/MS)
Format: in vivo, Sprague-Dawley rats
test_context: Sprague-Dawley, rat, brain (cerebellum); rats, cerebellum; 2.67 g/kg once daily oral gavage; 30 min post-dose; read-out: Brain trehalose level
Description: Animal behavior was assessed pre-surgery and at 3 and 6 weeks post-surgery. Behaviour was assessed by the cylinder test to assess forelimb asymmetry with asymmetry indicating an imbalance in striatal dopaminergic function between the side injected with AAV1/2 αSYN and the contralateral side. […] Striatal tissue from both hemispheres was collected and analysed for dopamine levels. Substantia nigra tissue was collected and analysed for the number of TH^+ve cells and the amount of A53T αSYN measured. […]
value_type: concentration at 30 min (ng/mL)
Numbers only here, please. The scale is ng/mL.

Fill in concentration at 30 min for record OC[C@H]1O[C@H](O[C@H]2O[C@H](CO)[C@@H](O)[C@H](O)[C@H]2O)[C@H](O)[C@@H](O)[C@@H]1O [trehalose]
52.8
